- MEASUREMENT NOTES: log P determination by HPLC on reverse-phase column (EEC Directive 79/831 Annex V.A8)
- Format: physicochemical
- ASSAY CONTEXT: pH 2.7
PARAMETER: chromatographic logP

>  <SMILES>
CNC(=O)c1cc(Cl)cc(C)c1NC(=O)c1cc(Cn2nc(C(F)(F)F)cc2C(F)(F)F)nn1-c1ncccc1Cl

>  <REPORTED VALUE>
3.67

$$$$

---

Examples of compounds with documented logP follow.
- MEASUREMENT NOTES: log P determination by HPLC on reverse-phase column (EEC Directive 79/831 Annex V.A8)
- Type: physicochemical
- ASSAY CONTEXT: HPLC on reverse-phase column
PARAMETER: logP

>  <COMPOUND>
Cc1cc(Cl)cc(C(=O)NC2CC2)c1NC(=O)c1cc(Cn2nc(C(F)(F)F)nc2C(F)(F)F)nn1-c1ncccc1Cl [I-1-54]

>  <REPORTED VALUE>
3.61

$$$$
>  <COMPOUND>
Cc1cc(Cl)cc(C(=O)NCC#N)c1NC(=O)c1cc(Cn2nnc(-c3ccc(C(F)(F)F)cc3)n2)nn1-c1ncccc1Cl [I-1-107]

>  <REPORTED VALUE>
3.65

$$$$
>  <COMPOUND>
CNC(=O)c1cc(Cl)cc(C)c1NC(=O)c1cc(Cn2cc(Br)c(C(F)(F)F)n2)nn1-c1ncccc1Cl [I-1-66]

>  <REPORTED VALUE>
3.38

$$$$
>  <COMPOUND>
Cc1cc(Cl)cc(C(=O)NC(C)C)c1NC(=O)c1cc(Cn2nc(C(F)(F)F)nc2C(F)(F)F)nn1-c1c(Cl)cccc1Cl [I-1-40]

>  <REPORTED VALUE>
4.58

$$$$
>  <COMPOUND>
CNC(=O)c1cc(Cl)cc(C)c1NC(=O)c1cc(Cn2nnc(-c3ccc(Br)cc3)n2)nn1-c1ncccc1Cl [I-1-150]

>  <REPORTED VALUE>
3.70

$$$$
>  <COMPOUND>
Cc1cc(Cl)cc(C(=O)NCC#N)c1NC(=O)c1cc(Cn2nc(C(F)(F)F)nc2C(F)(F)F)nn1-c1ncccc1Cl [I-1-79]

>  <REPORTED VALUE>
3.62

$$$$

---

- MEASUREMENT NOTES: log P determination by HPLC on reverse-phase column (EEC Directive 79/831 Annex V.A8)
- Type: physicochemical
- ASSAY CONTEXT: HPLC on reverse-phase column

>  <COMPOUND>
CNC(=O)c1cc(Cl)cc(C)c1NC(=O)c1cc(Cn2cc(C(F)(F)C(F)(F)F)cn2)nn1-c1ncccc1Cl [I-1-64]

>  <logP>
3.21

$$$$
>  <COMPOUND>
Cc1cc(Cl)cc(C(=O)NC(C)C)c1NC(=O)c1cc(Cn2nc(C(F)(F)F)n(C)c2=O)nn1-c1ncccc1Cl [I-1-117]

>  <logP>
2.85

$$$$
>  <COMPOUND>
CNC(=O)c1cc(Cl)cc(C)c1NC(=O)c1cc(Cn2cc(Cl)cn2)nn1-c1ncccc1Cl [I-1-4]

>  <logP>
2.54

$$$$
>  <COMPOUND>
Cc1cc(Cl)cc(C(=O)NC(C)(C)CS(C)(=O)=O)c1NC(=O)c1cc(Cn2cc(Br)c(C(F)(F)F)n2)nn1-c1ncccc1Cl [I-1-145]

>  <logP>
3.56

$$$$
